- Target: CB1 (mutant) (Homo sapiens, UniProt P21554)
- Sequence (P21554 1-417, change not shown): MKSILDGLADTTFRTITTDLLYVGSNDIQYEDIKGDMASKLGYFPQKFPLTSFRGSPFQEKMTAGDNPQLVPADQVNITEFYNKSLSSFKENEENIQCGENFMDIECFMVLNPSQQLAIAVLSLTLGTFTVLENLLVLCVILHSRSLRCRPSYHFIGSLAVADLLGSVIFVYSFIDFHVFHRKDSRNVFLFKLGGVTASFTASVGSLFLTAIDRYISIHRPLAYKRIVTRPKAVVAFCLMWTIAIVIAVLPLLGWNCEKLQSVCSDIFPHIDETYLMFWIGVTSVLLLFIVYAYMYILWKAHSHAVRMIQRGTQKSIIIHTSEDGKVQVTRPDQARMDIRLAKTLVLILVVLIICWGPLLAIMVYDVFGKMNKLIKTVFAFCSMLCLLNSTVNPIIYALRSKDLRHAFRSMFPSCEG
- Procedure Summary: R-SAT functional receptor assay, CB1 (mutant, truncated after amino acid 417)
- Assay type: cell-based
- Test Conditions: Appendix A; R-SAT CB1; receptor form not stated; relative to SR141716 (100%); read-out: % Inhibition
Listing of recorded Emax by entry.
Metric: Emax (%)

COc1ccccc1C1=Nc2cc(C(=O)NCCC(C)C)ccc2Sc2ccccc21 | 91
O=C(NN1CCOCC1)c1ccc2c(c1)N=C(N1CCCCC1)c1ccccc1S2 | 99
Cc1cccc(C2=Nc3cc(C(=O)NCc4ccc(C)o4)ccc3Sc3ccccc32)n1 [drawing 805] | 96
O=C(NCCc1ccccc1)c1ccc2c(c1)N=C(N1CCCCC1)c1ccccc1S2 [drawing 1019] | 106
O=C(NCCc1ccc(Cl)cc1)c1ccc2c(c1)N=C(N1CCC(F)CC1)c1ccccc1S2 [drawing 1119] | 103
O=C(NCc1ccccc1)c1ccc2c(c1)N=C(C1CCCCC1)c1ccccc1S2 [drawing 877] | 97
O=C(NCc1cccs1)c1ccc2c(c1)N=C(c1ccc(Cl)s1)c1ccccc1S2 [drawing 553] | 114
O=C(NCc1cccs1)c1ccc2c(c1)N=C(c1ccccc1F)c1ccccc1S2 [drawing 795] | 114
CCCC1=Nc2cc(C(=O)N3CCN(C(=O)OCC)CC3)ccc2Sc2ccccc21 | 77

Hey, just so you know, these numbers are from patent US20080090805A1.
